- System: MDA-MB-231 breast
- ASSAY NOTES: NCI tumour cell line growth inhibition, 48 h
QUANTITY: TGI

See these solved cases before continuing.
{"COMPOUND": "CCOC(=O)c1nc2ccccc2nc1NCc1cc(OC)c(OC)c(OC)c1", "RESULT": "> 100 µM"}
{"COMPOUND": "Cc1cc2c(cc1Cl)S(=O)(=O)OC(c1ccc([N+](=O)[O-])cc1)=N2", "RESULT": "> 100 µM"}
{"COMPOUND": "CCN(Cc1ccc(F)cc1)c1ccc(CO)c(F)c1", "RESULT": "> 69 µM"}
{"COMPOUND": "CCCCc1ccc(Nc2nc(SC)c3[nH]cnc3n2)cc1", "RESULT": "> 100 µM"}
{"COMPOUND": "CC(C)=CCC/C(=C/CC/C(=C\\CCc1ccoc1)C(=O)O)C(=O)O", "RESULT": "> 100 µM"}

Note: attention shifts to another entry.
(Q) Suppose we examine the compound CCOC(=O)c1c(N)sc2c1C(C)(C(=O)OCC)CC2 (stereo unspecified) ; what TGI value has been reported?
(A) > 100 µM
